test-target: SphK2 (Homo sapiens, UniProt Q9NRA0)
Construct: commercial enzyme from BPS Bioscience
experimental-details: ADP-Glo kinase assay
Format: biochemical
Source text: ADP-Glo kinase assay on SphK2
endpoint: IC50 (µM)

I: CCCCCCCCCCCCCC[C@@H]1CC[C@H](N)[C@@H]1O
II: CCCCCCCCCCCCCC[C@@H]1OC[C@H](N)[C@@H]1O
stdin: In the pair I and II , the larger recorded IC50 belongs to which? Your choice should be expressed through its label.
stdout: II

###

test-target: SphK2 (Homo sapiens)
Construct: commercial enzyme from BPS Bioscience
Sequence (Q9NRA0 1-654): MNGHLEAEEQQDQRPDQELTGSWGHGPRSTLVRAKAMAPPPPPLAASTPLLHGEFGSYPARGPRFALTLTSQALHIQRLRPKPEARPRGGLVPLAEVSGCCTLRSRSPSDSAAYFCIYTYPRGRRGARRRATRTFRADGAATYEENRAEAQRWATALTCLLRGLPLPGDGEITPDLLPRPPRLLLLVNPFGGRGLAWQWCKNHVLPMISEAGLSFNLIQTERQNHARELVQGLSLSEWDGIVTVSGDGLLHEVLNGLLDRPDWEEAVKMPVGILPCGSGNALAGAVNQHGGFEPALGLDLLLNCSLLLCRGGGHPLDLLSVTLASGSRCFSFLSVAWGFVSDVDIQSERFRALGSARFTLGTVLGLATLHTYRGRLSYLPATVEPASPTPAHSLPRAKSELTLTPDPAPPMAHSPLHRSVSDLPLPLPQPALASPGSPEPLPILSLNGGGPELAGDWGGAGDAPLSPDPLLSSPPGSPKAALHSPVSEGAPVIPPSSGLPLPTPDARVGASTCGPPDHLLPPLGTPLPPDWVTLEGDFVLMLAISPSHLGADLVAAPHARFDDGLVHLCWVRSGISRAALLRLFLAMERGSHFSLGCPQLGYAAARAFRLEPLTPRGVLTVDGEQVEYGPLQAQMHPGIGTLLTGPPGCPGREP
experimental-details: ADP-Glo kinase assay
Assay type: biochemical
measurement-parameters: 1 µM sphingosine, 150 µM ATP, 5 mM MgCl2, pH 7.2, 1% DMSO, 1 h, room temperature
endpoint: IC50 (µM)
Provide only the numeric value, understood in µM.

stdin: Please give measured IC50 of the following entry: CCCCCCCCCCCCC/C=C/[C@@H](O)[C@H](CO)N(C)C [N,N-dimethylsphingosine]
stdout: 19.9
